- system under test: T1, PUF4 RNA-binding domain (Saccharomyces cerevisiae, UniProt P25339 537-888)
- T1 sequence: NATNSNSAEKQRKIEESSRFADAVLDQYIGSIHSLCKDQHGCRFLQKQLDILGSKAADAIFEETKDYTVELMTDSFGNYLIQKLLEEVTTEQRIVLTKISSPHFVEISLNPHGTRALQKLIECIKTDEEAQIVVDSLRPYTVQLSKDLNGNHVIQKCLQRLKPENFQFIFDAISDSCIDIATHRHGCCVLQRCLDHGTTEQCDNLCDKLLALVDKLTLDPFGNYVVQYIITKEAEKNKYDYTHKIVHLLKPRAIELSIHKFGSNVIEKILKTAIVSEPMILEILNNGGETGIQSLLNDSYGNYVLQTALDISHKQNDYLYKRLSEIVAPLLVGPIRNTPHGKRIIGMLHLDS
- experiment summary: Mg; RNA-MaP; 20 mM Na-HEPES pH 7.4, 30 mM KOAc, 0.75 mM MgCl2, 0.1% Tween-20, 5% glycerol, 0.1 mg/mL BSA, 2 mM DTT; 25 C; 0.0125-409.6 nM protein
- experimental context: tags: N-His6-TEV cleaved; C-SNAP kept, Cy3B-labelled; label: tethered on chip by stalled RNA polymerase
Entries annotated with measured log10 of Kd
Quick note: numbers are log10 of Kd, with nM as the unit.

binder: Ic_S4_P3E.1_K3.1_C3.1_H3.1_A3.1_[T5G]_[A6T]_F3.1_[T7A]_[A8C]_T3.1 (ssRNA) RNA: UUUGACAACUGAUCGUUCUUUCUUGUAGUACUUCUUUCUCGAUCAGUUGUCUUU
log10 of Kd: 2.61

binder: Ic_S2_P5E.1_K5.1_C5.1_H5.1_A5.1_[T5C]_[T6A]_[A7C]_F5.1_[T8A]_[T9A]_T5.1 (ssRNA) RNA: UUUGAUUAAUAUGAUAUCGUUCUUUCUUGUACACAAAUUCUUUCUCGAUAUCAUAUUAAUCUUU
log10 of Kd: 1.03

binder: UCUCUUUAUGUAUAUUAUCUCUCUU (ssRNA) [Id_ii_S1_P4E.2_K4.1_C4.2_[C-2T]_[T-1A]_H4.1_A4.1_F4.1_T4.2_[G10T]_[T11C]]
log10 of Kd: -0.05

binder: Ic_S2_P4E.1_K4.1_C4.1_H4.1_A4.1_[T5A]_[T7C]_F4.1_[A9G]_T4.1 (ssRNA) RNA: UUUGAUUAAUAUGAUAUCGUUCUUUCUUGUAAACUGUUCUUUCUCGAUAUCAUAUUAAUCUUU
log10 of Kd: 1.26

binder: UCUCUUUAUGUAUUAUUAUUUCUCUU (ssRNA) [Id_ii_S1_P5E.2_K5.1_C5.2_[C-2T]_[T-1A]_H5.1_A5.1_F5.1_T5.2_[A12T]]
log10 of Kd: 0.89

In: Need log10 of Kd of Ic_S2_P4E.1_K4.1_C4.1_H4.1_A4.1_[T5A]_[A6T]_F4.1_[A9T]_T4.1 (ssRNA) RNA: UUUGAUUAAUAUGAUAUCGUUCUUUCUUGUAAUUUUUUCUUUCUCGAUAUCAUAUUAAUCUUU , thanks.
Out: 1.35

In: Need log10 of Kd of Id_ii_S2_P3E.4_K3.3_C3.2_H3.3_A3.1_F3.1_T3.2_[A10C] (ssRNA) RNA: UUUGAUUAAUAUGAUAUCGUUCUUUCUCUACACUAUAUCUUCUUUCUCGAUAUCAUAUUAAUCUUU , thanks.
Out: 2.54

In: Need log10 of Kd of UCUCUUCUUGUAUAUACCCUUUAUCUCUU (ssRNA) [Ie_S1_P3E.2_K3.1_C3.2_H3.1_A3.1_F3.1_[+8CCCTT]_T3.2] , thanks.
Out: 0.98

In: Need log10 of Kd of Ie_S2_P5E.1_K5.1_C5.1_H5.1_A5.1_F5.1_[+9CCT]_T5.1 (ssRNA) RNA: UUUGAUUAAUAUGAUAUCGUUCUUUCUUGUAUUAUUCCUAUUCUUUCUCGAUAUCAUAUUAAUCUUU , thanks.
Out: 0.86

In: Need log10 of Kd of ACAAACUGUCUAUUAUUAACAAAC (ssRNA) [Ie_S3_P5E.1_K5.1_C5.1_H5.1_[+3CT]_A5.1_F5.1_T5.1] , thanks.
Out: 1.46

In: Need log10 of Kd of Id_iii_S2_P3E.5_K3.1_C3.3_[T-3A]_H3.1_A3.1_F3.1_T3.2 (ssRNA) RNA: UUUGAUUAAUAUGAUAUCGUUCUUUCUACUUGUAUAUAUAUUCUUUCUCGAUAUCAUAUUAAUCUUU , thanks.
Out: 0.07

In: Need log10 of Kd of Ic_S2_P4E.1_K4.1_C4.1_H4.1_A4.1_[T5A]_[T7C]_F4.1_[A9T]_T4.1 (ssRNA) RNA: UUUGAUUAAUAUGAUAUCGUUCUUUCUUGUAAACUUUUCUUUCUCGAUAUCAUAUUAAUCUUU , thanks.
Out: 1.16

In: Need log10 of Kd of UCUCUUUGUAUACCCUUCUCUU (ssRNA) [Ic_S1_P5E.1_K5.1_C5.1_H5.1_A5.1_[T6A]_[A7C]_F5.1_[T8C]_[T9C]_[A10T]_T5.1] , thanks.
Out: 2.01

In: Need log10 of Kd of ACAAACAUUAUAUAUUACUACAAAC (ssRNA) [Id_ii_S3_P4E.3_K4.2_C4.2_[C-2A]_H4.2_A4.1_F4.1_T4.2_[G10C]] , thanks.
Out: 1.32

In: Need log10 of Kd of Id_ii_S2_P3E.4_K3.3_C3.2_H3.3_A3.1_F3.1_T3.2_[A10T] (ssRNA) RNA: UUUGAUUAAUAUGAUAUCGUUCUUUCUCUACACUAUAUUUUCUUUCUCGAUAUCAUAUUAAUCUUU , thanks.
Out: 2.60

In: Need log10 of Kd of UCUCUUUGUAUUAUUCUCUUAUCUCUU (ssRNA) [Ie_S1_P5E.1_K5.1_C5.1_H5.1_A5.1_F5.1_[+8TCTCT]_T5.1] , thanks.
Out: 1.23

In: Need log10 of Kd of Ic_S2_P5E.1_K5.1_C5.1_H5.1_A5.1_[T6A]_[A7C]_F5.1_[T8C]_[T9A]_[A10C]_T5.1 (ssRNA) RNA: UUUGAUUAAUAUGAUAUCGUUCUUUCUUGUAUACCACUUCUUUCUCGAUAUCAUAUUAAUCUUU , thanks.
Out: 1.49

In: Need log10 of Kd of UCUCUUAGUAUUUUUAUCUCUU (ssRNA) [Ib_S1_P5E.1_K5.1_C5.1_H5.1_[T1A]_A5.1_[A7T]_F5.1_T5.1] , thanks.
Out: 3.17

In: Need log10 of Kd of Ic_S2_P4E.1_K4.1_C4.1_H4.1_A4.1_[T5A]_[T7C]_F4.1_[T8C]_[A9T]_T4.1 (ssRNA) RNA: UUUGAUUAAUAUGAUAUCGUUCUUUCUUGUAAACCUUUCUUUCUCGAUAUCAUAUUAAUCUUU , thanks.
Out: 2.38

In: Need log10 of Kd of Ib_S4_P5E.1_K5.1_C5.1_H5.1_A5.1_[T5C]_F5.1_[A10T]_T5.1 (ssRNA) RNA: UUUGACAACUGAUCGUUCUUUCUUGUACUAUUUUUCUUUCUCGAUCAGUUGUCUUU , thanks.
Out: 0.70

In: Need log10 of Kd of UCUCUUCUUAUAUUAUUAAUUCUCUU (ssRNA) [Id_ii_S1_P5E.3_K5.2_C5.2_H5.2_A5.1_F5.1_T5.2_[T11A]_[A12T]] , thanks.
Out: 2.66

All values here come from paper PMC9352680.
